Each entry below carries its recorded EC50.
# system.name: rat μ opioid receptors (rMOR) (Rattus norvegicus, UniProt P33535)
# Construct: expressed in transfected cells; host or cells: HN9.10 neuroblastoma cell line, pCDNA3, neomycin-selected clones
# Sequence (P33535 whole entry): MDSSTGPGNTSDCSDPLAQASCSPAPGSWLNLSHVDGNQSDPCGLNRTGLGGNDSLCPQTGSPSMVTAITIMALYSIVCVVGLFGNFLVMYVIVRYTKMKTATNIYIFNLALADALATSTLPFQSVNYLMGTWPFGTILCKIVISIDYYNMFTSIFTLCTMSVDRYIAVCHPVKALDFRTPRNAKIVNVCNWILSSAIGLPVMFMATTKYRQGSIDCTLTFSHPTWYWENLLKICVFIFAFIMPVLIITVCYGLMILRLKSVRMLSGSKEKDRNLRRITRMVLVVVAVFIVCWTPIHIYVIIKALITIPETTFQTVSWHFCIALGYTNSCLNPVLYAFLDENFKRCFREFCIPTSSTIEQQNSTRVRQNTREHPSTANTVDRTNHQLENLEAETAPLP
# measurement.notes: biochemical
# Type: biochemical
# test.settings: Table 39; read-out: GTP binding rMOR EC50
Peptide text beside a SMILES is read from it.
Put your answer as a value accompanied by its unit after it.

The reported EC50 value, rat μ opioid receptors (rMOR) (Rattus norvegicus, UniProt P33535), for CC(C)C[C@H](NC(=O)[C@@H]1CCCN1C(=O)[C@H]1CSSC[C@@H](NC(=O)[C@@H](N)Cc2ccc(O)cc2)C(=O)NCC(=O)N[C@@H](Cc2ccccc2)C(=O)N1)C(=O)N[C@@H](Cc1c[nH]c2ccccc12)C(=O)NCc1cc(C(F)(F)F)cc(C(F)(F)F)c1 [TY037, [D-Cys^2, D-Cys^5]TY027] reads 0.0529 µM

The reported EC50 value, rat μ opioid receptors (rMOR) (Rattus norvegicus, UniProt P33535), for CC(C)C[C@H](NC(=O)[C@@H]1CCCN1C(=O)[C@H](Cc1ccccc1)NC(=O)[C@H](Cc1ccccc1)NC(=O)CNC(=O)[C@@H](C)NC(=O)[C@@H](N)Cc1ccc(O)cc1)C(=O)N[C@@H](Cc1c[nH]c2ccccc12)C(=O)NCc1cc(C(F)(F)F)cc(C(F)(F)F)c1 [TY015] (HELM PEPTIDE1{Y.[dA].G.F.F.P.L.W.[FC(F)(F)c1cc(CN[*:1])cc(C(F)(F)F)c1]}$$$$V2.0; N-terminus assumed) reads 0.176 µM

The reported EC50 value, rat μ opioid receptors (rMOR) (Rattus norvegicus, UniProt P33535), for `CC(C)C[C@H](NC(=O)[C@@H]1CCCN1C(=O)[C@@H]1CSSC[C@@H](NC(=O)[C@@H](N)Cc2ccc(O)cc2)C(=O)NCC(=O)N[C@@H](Cc2ccccc2)C(=O)N1)C(=O)N[C@@H](Cc1c[nH]c2ccccc12)C(=O)NCc1cc(C(F)(F)F)cc(C(F)(F)F)c1` reads 0.118 µM

The reported EC50 value, rat μ opioid receptors (rMOR) (Rattus norvegicus, UniProt P33535), for CC(C)C[C@H](NC(=O)[C@@H]1CCCN1C(=O)CNC(=O)[C@H](Cc1ccccc1)NC(=O)CNC(=O)[C@@H](C)NC(=O)[C@@H](N)Cc1ccc(O)cc1)C(=O)N[C@@H](Cc1c[nH]c2ccccc12)C(=O)OCc1cc(C(F)(F)F)cc(C(F)(F)F)c1 [TY006] (HELM PEPTIDE1{Y.[dA].G.F.G.P.L.W.[FC(F)(F)c1cc(CO[*:1])cc(C(F)(F)F)c1]}$$$$V2.0) reads 0.0417 µM

The reported EC50 value, rat μ opioid receptors (rMOR) (Rattus norvegicus, UniProt P33535), for `CC(C)C[C@H](NC(=O)[C@@H]1CCCN1C(=O)[C@@H](Cc1ccccc1)NC(=O)[C@H](Cc1ccccc1)NC(=O)CNC(=O)[C@@H](C)NC(=O)[C@@H](N)Cc1ccc(O)cc1)C(=O)N[C@@H](Cc1c[nH]c2ccccc12)C(=O)OCc1cc(C(F)(F)F)cc(C(F)(F)F)c1` reads 0.345 µM

The reported EC50 value, rat μ opioid receptors (rMOR) (Rattus norvegicus, UniProt P33535), for `CC(C)C[C@H](NC(=O)[C@@H]1CCCN1C(=O)[C@H](Cc1ccccc1)NC(=O)[C@H](Cc1ccccc1)NC(=O)CNC(=O)[C@@H](C)NC(=O)[C@@H](N)Cc1ccc(O)cc1)C(=O)N[C@@H](Cc1c[nH]c2ccccc12)C(=O)OCc1cc(C(F)(F)F)cc(C(F)(F)F)c1` reads 0.0587 µM

The reported EC50 value, rat μ opioid receptors (rMOR) (Rattus norvegicus, UniProt P33535), for CCCC[C@@H]1NC(=O)[C@H](Cc2ccccc2)NC(=O)CNC(=O)[C@H](NC(=O)[C@@H](N)Cc2ccc(O)cc2)C(C)(C)SSC(C)(C)[C@@H](C(=O)N[C@@H](Cc2c[nH]c3ccccc23)C(=O)NCc2cc(C(F)(F)F)cc(C(F)(F)F)c2)NC(=O)[C@@H]2CCCN2C1=O [TY047] (HELM PEPTIDE1{Y.[CC(C)(S[*:3])[C@@H](N[*:1])C(=O)[*:2]].G.F.[Nle].P.[Pen].W.[FC(F)(F)c1cc(CN[*:1])cc(C(F)(F)F)c1]}$PEPTIDE1,PEPTIDE1,2:R3-7:R3$$$V2.0; N-terminus assumed) reads 2.91 µM

----------
Each entry below carries its recorded Kb.
# system.name: Substance P receptors (guinea pig NK1) (Cavia porcellus)
# Construct: from tissue; host or cells: guinea pig (Hartley) ileum LMMP, 1 μM naloxone present
# Sequence (P30547 whole entry): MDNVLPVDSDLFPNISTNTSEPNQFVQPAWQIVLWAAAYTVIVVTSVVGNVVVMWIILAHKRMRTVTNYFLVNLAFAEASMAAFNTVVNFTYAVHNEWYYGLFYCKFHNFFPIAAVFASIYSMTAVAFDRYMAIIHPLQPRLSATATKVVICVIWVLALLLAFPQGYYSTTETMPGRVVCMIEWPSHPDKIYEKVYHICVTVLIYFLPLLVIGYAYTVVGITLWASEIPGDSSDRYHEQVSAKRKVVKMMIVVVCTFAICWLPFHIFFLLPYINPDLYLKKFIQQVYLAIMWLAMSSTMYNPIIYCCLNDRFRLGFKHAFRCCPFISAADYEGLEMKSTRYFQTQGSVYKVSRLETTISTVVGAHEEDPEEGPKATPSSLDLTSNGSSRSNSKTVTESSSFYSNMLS
# measurement.notes: Guinea pig isolated ileum (GPI) assay with substance P stimulation in presence of 1 μM naloxone
# test.settings: GPI/LMMP SP antagonist Ke (nM), Table 35
Peptide text beside a SMILES is read from it.
Your answer should be a plain number; it is taken to be in nM.

[[record]]
compound = "C[C@H](NC(=O)[C@H](Cc1ccccc1)NC(=O)CNC(=O)[C@@H](C)NC(=O)[C@@H](N)Cc1ccc(O)cc1)C(=O)N[C@@H](Cc1c[nH]c2ccccc12)C(=O)OCc1cc(C(F)(F)F)cc(C(F)(F)F)c1 [NP31] (HELM PEPTIDE1{Y.[dA].G.F.A.W.[FC(F)(F)c1cc(CO[*:1])cc(C(F)(F)F)c1]}$$$$V2.0; N-terminus assumed)"
system_name = "Substance P receptors (guinea pig NK1) (Cavia porcellus)"
test_result = 18.6


The reported Kb value, Substance P receptors (guinea pig NK1) (Cavia porcellus), for CC[C@H](NC(=O)[C@H](Cc1ccccc1)NC(=O)CNC(=O)[C@@H](C)NC(=O)[C@@H](N)Cc1ccc(O)cc1)C(=O)N[C@@H](Cc1c[nH]c2ccccc12)C(=O)OCc1cc(C(F)(F)F)cc(C(F)(F)F)c1 [NP33] (HELM PEPTIDE1{Y.[dA].G.F.[Abu].W.[FC(F)(F)c1cc(CO[*:1])cc(C(F)(F)F)c1]}$$$$V2.0; N-terminus assumed) reads 5.6

----------
# system.name: human δ opioid receptors (hDOR) (Homo sapiens, UniProt P41143)
# Construct: expressed in transfected cells; host or cells: HN9.10 neuroblastoma cell line, pCDNA3, neomycin-selected clones
# Sequence (P41143 whole entry): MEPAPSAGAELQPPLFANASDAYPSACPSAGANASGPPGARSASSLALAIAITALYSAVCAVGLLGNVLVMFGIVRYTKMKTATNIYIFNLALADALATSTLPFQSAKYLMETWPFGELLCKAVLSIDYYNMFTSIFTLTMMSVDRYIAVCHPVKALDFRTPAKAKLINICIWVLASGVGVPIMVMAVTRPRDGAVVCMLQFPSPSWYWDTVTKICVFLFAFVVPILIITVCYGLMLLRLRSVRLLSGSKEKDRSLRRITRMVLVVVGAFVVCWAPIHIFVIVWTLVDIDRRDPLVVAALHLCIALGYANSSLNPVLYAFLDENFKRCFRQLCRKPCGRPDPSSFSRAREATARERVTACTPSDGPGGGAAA
# measurement.notes: [35S]GTP-γ-S binding assay, hDOR
# Assay type: biochemical
# test.settings: Table 39; read-out: GTP binding hDOR Emax
Peptide text beside a SMILES is read from it.
Each entry below carries its recorded Emax.
Your answer should be a plain number; it is taken to be in %.

[[record]]
compound = "CC(C)C[C@H](NC(=O)[C@@H]1CCCN1C(=O)CNC(=O)[C@H](Cc1ccccc1)NC(=O)CNC(=O)[C@@H](C)NC(=O)[C@@H](N)Cc1ccc(O)cc1)C(=O)N[C@@H](Cc1c[nH]c2ccccc12)C(=O)OCc1cc(C(F)(F)F)cc(C(F)(F)F)c1 [TY006] (HELM PEPTIDE1{Y.[dA].G.F.G.P.L.W.[FC(F)(F)c1cc(CO[*:1])cc(C(F)(F)F)c1]}$$$$V2.0)"
test_result = 33.6

[[record]]
compound = "CSCC[C@H](NC(=O)[C@H](Cc1ccccc1)NC(=O)CNC(=O)[C@@H](C)NC(=O)[C@@H](N)Cc1c(C)cc(O)cc1C)C(=O)N1CCC[C@H]1C(=O)N[C@@H](CC(C)C)C(=O)N[C@@H](Cc1c[nH]c2ccccc12)C(=O)OCc1cc(C(F)(F)F)cc(C(F)(F)F)c1"
test_result = 200

[[record]]
compound = "CSCC[C@H](NC(=O)[C@H](Cc1ccccc1)NC(=O)CNC(=O)[C@@H](C)NC(=O)[C@@H](N)Cc1ccc(O)cc1)C(=O)N1CCC[C@H]1C(=O)N[C@@H](CC(C)C)C(=O)N[C@@H](Cc1c[nH]c2ccccc12)C(=O)OCc1ccccc1"
test_result = 98

[[record]]
compound = "CC(C)C[C@H](NC(=O)[C@@H]1CCCN1C(=O)[C@H](Cc1ccccc1)NC(=O)[C@H](Cc1ccccc1)NC(=O)CNC(=O)[C@@H](C)NC(=O)[C@@H](N)Cc1ccc(O)cc1)C(=O)N[C@@H](Cc1c[nH]c2ccccc12)C(=O)OCc1ccccc1 [TY014] (HELM PEPTIDE1{Y.[dA].G.F.F.P.L.W.[c1ccc(CO[*:1])cc1]}$$$$V2.0; N-terminus assumed)"
test_result = 137

[[record]]
compound = "CC(C)C[C@H](NC(=O)[C@@H]1CCCN1C(=O)[C@H](CC(C)C)NC(=O)[C@H](Cc1ccccc1)NC(=O)CNC(=O)[C@@H](C)NC(=O)[C@@H](N)Cc1ccc(O)cc1)C(=O)N[C@@H](Cc1c[nH]c2ccccc12)C(=O)OCc1cc(C(F)(F)F)cc(C(F)(F)F)c1"
test_result = 42.5


The reported Emax value, human δ opioid receptors (hDOR) (Homo sapiens, UniProt P41143), for `CCCC[C@H](NC(=O)[C@H](Cc1ccccc1)NC(=O)CNC(=O)[C@@H](C)NC(=O)[C@@H](N)Cc1ccc(O)cc1)C(=O)N1CCC[C@H]1C(=O)N[C@@H](CC(C)C)C(=O)N[C@@H](Cc1c[nH]c2ccccc12)C(=O)NCc1cc(C(F)(F)F)cc(C(F)(F)F)c1` reads 125

Data provenance: patent US8026218B2
